test summary: Drug metabolism in human fibroblast cells assessed as residual substrate levels at 50 uM up to 120 mins by HPLC-UV analysis
Type: ADME, cell-based
condition set: read-out: Stability
recorded metric: remaining at 2 h, 50 µM (%)
Note: unit % is implicit; provide only the numeric part.

Reference set, count: 4
# compound, remaining at 2 h, 50 µM (%)
rows = [
    ("COc1cc(CNC(=O)CCCC/C=C/C(C)C)ccc1O [CAPSAICIN]", 100),
    ("COc1cc(CNC(=O)COC(=O)/C=C(\\C)CCC=C(C)C)c(I)cc1O", 100),
    ("CCCCCCCCCCCC(=O)OCC(=O)NCc1ccc(O)c(OC)c1", 19.5),
    ("CC(C)=CCC/C(C)=C/CC/C(C)=C/CC/C=C(\\C)CC/C=C(\\C)CCC(=O)OCC(=O)NCc1ccc(O)c(O)c1", 59.6),
]

Proceeding to the next compound to report its remaining at 2 h, 50 µM.
Look up remaining at 2 h, 50 µM for this compound: `CCCCCCCCCCCC(=O)OCC(=O)NCc1cc(OC)c(O)cc1I` 13.3

###

test summary: Drug metabolism in human plasma assessed as residual substrate levels at 100 uM up to 20 mins by HPLC-UV analysis
Assay type: ADME, cell-free
condition set: read-out: Stability
Listed next: entries and their corresponding remaining at 20 min, 100 µM.
Supply the numeric figure in %, leaving out any unit text.

Some solved cases for reference:
# sample smiles, val
measured = [
    ("COc1cc(CNC(=O)COC(=O)CC/C(C)=C/CC/C(C)=C/CC/C=C(\\C)CC/C=C(\\C)CCC=C(C)C)ccc1O", 78.1),
    ("CCCCCCCCCCCC(=O)OCC(=O)NCc1cc(OC)c(O)cc1I", 82),
    ("CCCCCCCCCCCC(=O)OCC(=O)NCc1ccc(O)c(OC)c1", 89.6),
]

Which value of remaining at 20 min, 100 µM has been reported for `CC(C)=CCC/C(C)=C/CC/C(C)=C/CC/C=C(\C)CC/C=C(\C)CCC(=O)OCC(=O)NCc1ccc(O)c(O)c1` in the records? 105

Which remaining at 20 min, 100 µM value is on record for `CCCCC/C=C\C/C=C\C/C=C\C/C=C\CCCC(=O)OCC(=O)NCc1ccc(O)c(OC)c1` ? 98.8

Consider the compound `CC(C)=CCC/C(C)=C/C(=O)OCC(=O)NCc1ccc(O)c(O)c1` and give its measured remaining at 20 min, 100 µM. 101

Need remaining at 20 min, 100 µM of `COc1cc(CNC(=O)COC(=O)/C=C(\C)CCC=C(C)C)c(I)cc1O` , thanks. 100

// returns reported remaining at 20 min, 100 µM for input `CCCCCCCCCCCCCCC(=O)OCC(=O)NCc1ccc(O)c(OC)c1` 95.7

What value of remaining at 20 min, 100 µM has been reported for the following compound? `COc1cc(CNC(=O)COC(=O)/C=C(\C)CCC=C(C)C)ccc1O` 98

Given `CCCCCCCC/C=C\CCCCCCCC(=O)OCC(=O)NCc1ccc(O)c(OC)c1` , state its recorded remaining at 20 min, 100 µM. 92.5

Reported remaining at 20 min, 100 µM, compound `CCCCCCCC(=O)OCC(=O)NCc1cc(OC)c(O)cc1I` : ____ 32.1

I would be grateful if you could share the reported remaining at 20 min, 100 µM for `COc1cc(CNC(=O)CCCC/C=C/C(C)C)ccc1O` . 99

###

target: Liver carboxylesterase 1 (CE1) (Homo sapiens)
test summary: Drug metabolism assessed as recombinant human CE1-mediated compound hydrolysis by measuring compound half life at 50 uM up to 60 mins by LC-UV analysis
Format: ADME
recorded metric: half-life at 50 µM (min)
# value in min; strip the unit string

# sample smiles, val
rows = [
    ("COc1cc(CNC(=O)COC(=O)/C=C(\\C)CCC=C(C)C)c(I)cc1O", 53.8),
]

Next molecule, please.
Which measured half-life at 50 µM value corresponds to `CC(C)=CCC/C(C)=C/CC/C(C)=C/CC/C=C(\C)CC/C=C(\C)CCC(=O)OCC(=O)NCc1ccc(O)c(O)c1` ? 11.4

###

test summary: Drug metabolism in human liver microsomes assessed as sulfate conjugate formation at 50 uM in presence of UDPGA after 60 mins by LC-ESI-MS analysis
Format: ADME, microsome
condition set: 1 h
recorded metric: Drug metabolism

Solved entries (count: 10):
# sample smiles, recorded metric, val
measured = [
    ("COc1cc(CNC(=O)COC(=O)/C=C(\\C)CCC=C(C)C)ccc1O", "Drug metabolism", "Metabolite_Notdetected"),
    ("COc1cc(CNC(=O)COC(=O)/C=C(\\C)CCC=C(C)C)c(I)cc1O", "Drug metabolism", "Metabolite_Notdetected"),
    ("CCCCCCCC/C=C\\CCCCCCCC(=O)OCC(=O)NCc1ccc(O)c(OC)c1", "Drug metabolism", "Metabolite_Notdetected"),
    ("CCCCC/C=C\\C/C=C\\C/C=C\\C/C=C\\CCCC(=O)OCC(=O)NCc1ccc(O)c(OC)c1", "Drug metabolism", "Metabolite_Notdetected"),
    ("COc1cc(CNC(=O)COC(=O)CC/C(C)=C/CC/C(C)=C/CC/C=C(\\C)CC/C=C(\\C)CCC=C(C)C)ccc1O", "Drug metabolism", "Metabolite_Notdetected"),
    ("CC(C)=CCC/C(C)=C/C(=O)OCC(=O)NCc1ccc(O)c(O)c1", "Drug metabolism", "Metabolite_Notdetected"),
    ("CC(C)=CCC/C(C)=C/CC/C(C)=C/CC/C=C(\\C)CC/C=C(\\C)CCC(=O)OCC(=O)NCc1ccc(O)c(O)c1", "Drug metabolism", "Metabolite_Notdetected"),
    ("CCCCCCCCCCCC(=O)OCC(=O)NCc1cc(OC)c(O)cc1I", "Drug metabolism", "Metabolite_Notdetected"),
    ("CCCCCCCCCCCC(=O)OCC(=O)NCc1ccc(O)c(OC)c1", "Drug metabolism", "Metabolite_Notdetected"),
    ("CCCCCCCC(=O)OCC(=O)NCc1cc(OC)c(O)cc1I", "Drug metabolism", "Metabolite_Notdetected"),
]

Now for a further compound.
What does the data say about its Drug metabolism? Entry: `CCCCCCCCCCCCCCC(=O)OCC(=O)NCc1ccc(O)c(OC)c1` Metabolite_Notdetected

###

target: Transient receptor potential cation channel subfamily V member 1 (Homo sapiens, UniProt Q8NER1)
Sequence (Q8NER1 whole entry): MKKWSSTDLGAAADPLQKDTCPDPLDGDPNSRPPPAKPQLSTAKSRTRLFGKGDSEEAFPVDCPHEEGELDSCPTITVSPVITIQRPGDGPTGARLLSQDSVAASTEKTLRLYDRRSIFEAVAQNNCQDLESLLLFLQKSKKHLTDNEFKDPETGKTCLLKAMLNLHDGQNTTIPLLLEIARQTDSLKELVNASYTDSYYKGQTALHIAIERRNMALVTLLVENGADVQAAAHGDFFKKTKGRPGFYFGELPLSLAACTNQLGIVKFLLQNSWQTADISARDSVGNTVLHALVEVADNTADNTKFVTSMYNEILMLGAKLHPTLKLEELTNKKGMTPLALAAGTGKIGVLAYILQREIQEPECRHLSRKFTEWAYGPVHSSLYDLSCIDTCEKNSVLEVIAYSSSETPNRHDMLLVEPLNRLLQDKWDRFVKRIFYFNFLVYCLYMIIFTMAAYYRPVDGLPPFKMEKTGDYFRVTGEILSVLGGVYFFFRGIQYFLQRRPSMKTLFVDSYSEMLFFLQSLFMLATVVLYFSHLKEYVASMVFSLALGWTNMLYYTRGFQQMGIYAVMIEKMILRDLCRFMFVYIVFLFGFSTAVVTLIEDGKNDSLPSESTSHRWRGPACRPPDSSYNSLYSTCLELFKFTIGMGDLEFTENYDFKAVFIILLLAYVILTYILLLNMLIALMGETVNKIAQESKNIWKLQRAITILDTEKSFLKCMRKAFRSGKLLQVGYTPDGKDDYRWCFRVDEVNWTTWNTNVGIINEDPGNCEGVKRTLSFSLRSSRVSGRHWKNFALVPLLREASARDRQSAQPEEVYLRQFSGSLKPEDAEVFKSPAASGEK
test summary: Antagonist activity at TRPV1 (unknown origin) expressed in human SH-SY5Y cells assessed as inhibition of capsaicin-induced calcium increase after 25 mins by Fluo-4 NW dye-based fluorescence assay
Collected pIC50 values appear next to each entry.
The quantity pIC50 is defined as the negative base-10 logarithm of the molar concentration.

Which pIC50 is reported for this compound? `CCCCCCCC(=O)OCC(=O)NCc1cc(OC)c(O)cc1I` 5.87

Given the compound `CCCCCCCCCCCC(=O)OCC(=O)NCc1cc(OC)c(O)cc1I` , what is its reported pIC50? 6.03

Quick one: pIC50 of `COc1cc(CNC(=O)COC(=O)/C=C(\C)CCC=C(C)C)c(I)cc1O` ? 7.05

###

test summary: Drug metabolism in human liver S9 fraction assessed as residual substrate levels at 50 uM up to 60 mins by HPLC-UV analysis
Assay type: ADME, subcellular
condition set: read-out: Stability
recorded metric: remaining at 1 h, 50 µM (%)
Quick note: give the figure in %, leave out the unit.

# sample smiles, unit text, val
records = [
    ("COc1cc(CNC(=O)COC(=O)/C=C(\\C)CCC=C(C)C)ccc1O", "%", 63.2),
    ("CCCCCCCC/C=C\\CCCCCCCC(=O)OCC(=O)NCc1ccc(O)c(OC)c1", "%", 53.7),
    ("CCCCCCCCCCCC(=O)OCC(=O)NCc1ccc(O)c(OC)c1", "%", 0),
    ("CCCCCCCCCCCC(=O)OCC(=O)NCc1cc(OC)c(O)cc1I", "%", 0),
    ("CC(C)=CCC/C(C)=C/CC/C(C)=C/CC/C=C(\\C)CC/C=C(\\C)CCC(=O)OCC(=O)NCc1ccc(O)c(O)c1", "%", 70.9),
]

# lookup: remaining at 1 h, 50 µM of `CC(C)=CCC/C(C)=C/C(=O)OCC(=O)NCc1ccc(O)c(O)c1` 2.2

// remaining at 1 h, 50 µM lookup, key: `CCCCC/C=C\C/C=C\C/C=C\C/C=C\CCCC(=O)OCC(=O)NCc1ccc(O)c(OC)c1` 26

###

Collected half-life at 50 µM values appear next to each entry.
target: Liver carboxylesterase 1 (CE1) (Homo sapiens, UniProt P23141)
Sequence (P23141 whole entry): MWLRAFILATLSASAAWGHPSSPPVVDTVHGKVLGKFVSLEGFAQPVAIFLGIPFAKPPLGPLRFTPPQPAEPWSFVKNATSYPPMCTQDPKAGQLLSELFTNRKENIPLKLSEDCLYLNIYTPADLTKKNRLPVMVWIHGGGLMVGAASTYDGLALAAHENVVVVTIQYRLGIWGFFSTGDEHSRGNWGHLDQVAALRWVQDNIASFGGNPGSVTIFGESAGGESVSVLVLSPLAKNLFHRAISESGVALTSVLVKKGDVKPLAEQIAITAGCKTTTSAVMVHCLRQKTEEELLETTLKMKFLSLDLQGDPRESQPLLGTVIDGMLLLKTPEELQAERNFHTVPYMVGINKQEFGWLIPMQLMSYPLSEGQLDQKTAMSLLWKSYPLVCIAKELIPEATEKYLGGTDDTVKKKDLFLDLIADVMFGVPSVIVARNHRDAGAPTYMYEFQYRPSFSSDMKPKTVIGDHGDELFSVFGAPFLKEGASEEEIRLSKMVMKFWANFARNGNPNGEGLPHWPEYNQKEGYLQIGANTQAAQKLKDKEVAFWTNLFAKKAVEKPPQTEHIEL
test summary: Drug metabolism assessed as recombinant human CE1-mediated compound hydrolysis by measuring compound half life at 50 uM up to 30 mins by LC-UV analysis
Format: ADME
Answer format: value, then unit.

# sample smiles, target, half-life at 50 µM
data = [
    ("CCCCCCCCCCCC(=O)OCC(=O)NCc1ccc(O)c(OC)c1", "Liver carboxylesterase 1 (CE1) (Homo sapiens, UniProt P23141)", "14.9 min"),
]

// next item, half-life at 50 µM requested
Can you share its half-life at 50 µM? I mean this compound: `CCCCCCCCCCCC(=O)OCC(=O)NCc1cc(OC)c(O)cc1I` 27.2 min
